# protocol.description: in vivo
# setup.conditions: male, Wistar, rat, in vivo, po, 4 mg/kg
experimental.readout: concentration at 2 h (ng/mL)
Answer in ng/mL, number only, no unit symbol.

Item: Nc1nc2ncc(CNc3ccc(C(=O)N[C@@H](CCC(=O)O)C(=O)O)cc3)nc2c(=O)[nH]1 | concentration at 2 h: 134

Item: Nc1nc2c(c(=O)[nH]1)N(C=O)C(CNc1ccc(C(=O)N[C@@H](CCC(=O)O)C(=O)O)cc1)CN2 (some centres unmarked) [Folinic acid, 5-formyl-tetrahydrofolate] | concentration at 2 h: 27.5

====

# protocol.description: in vivo
# setup.conditions: male, Wistar, rat, in vivo, po, 4 mg/kg
experimental.readout: concentration at 4 h (ng/mL)
Answer in ng/mL, number only, no unit symbol.

Item: Nc1nc2c(c(=O)[nH]1)N(C=O)C(CNc1ccc(C(=O)N[C@@H](CCC(=O)O)C(=O)O)cc1)CN2 (some centres unmarked) [Folinic acid, 5-formyl-tetrahydrofolate] | concentration at 4 h: 21.7

Item: Nc1nc2ncc(CNc3ccc(C(=O)N[C@@H](CCC(=O)O)C(=O)O)cc3)nc2c(=O)[nH]1 [Folic Acid, pteroylglutamic acid] | concentration at 4 h: 121
